# Test method notes: Orienting acute toxicity after a single oral dose
# Setup conditions: mouse, in vivo; mice, groups of 5, oral single dose, observation time 14 days; read-out: Orientierende aktute Toxizität
Property label: LD50 at 336 h

Exam item: GET /values?readout=LD50 at 336 h&item= CSc1nc2c(N3CC[S+]([O-])CC3)nc(N3CCNCC3)nc2nc1NCc1ccccc1 [Substanz D]
Marked response: > 250 mg/kg

Exam item: LD50 at 336 h lookup needed for CN(C)c1nc2nc(N3CCNCC3)nc(N(C)C)c2nc1SCc1ccccc1 [Substanz C] , thanks.
Marked response: > 250 mg/kg

Exam item: Quick one: LD50 at 336 h for c1ccc(CSc2nc3c(N4CCOCC4)nc(N4CCNCC4)nc3nc2N2CCOCC2)cc1 [Substanz A] ?
Marked response: > 250 mg/kg

====

# Test system: Mäusen
# Test method notes: Orienting acute toxicity after a single oral dose
# Setup conditions: in vivo, po, 250 mg/kg
# Excerpt: Die orientierende akute Toxizität der zu untersuchenden Substanzen wurde orientierend an Gruppen von je 5 Mäusen nach oraler Gabe einer Einzeldosis bestimmt (Beobachtungszeit: 14 Tage): […]
Would you mind telling me the reported Tieren gestorben of each entry?
Write the value in von 5 as a bare number.

Exam item: Item under review: c1ccc(CSc2nc3c(N4CCOCC4)nc(N4CCNCC4)nc3nc2N2CCOCC2)cc1 [Substanz A] . Reported Tieren gestorben?
Marked response: 0

Exam item: Any idea what Tieren gestorben was measured for CN(C)c1nc2nc(N3CCNCC3)nc(N(C)C)c2nc1SCc1ccccc1 [Substanz C] ?
Marked response: 0

Exam item: Given the entry CN(C)c1nc(N2CCNCC2)nc2nc(NCc3ccccc3)c(Cl)nc12 [Substanz E] , report its measured Tieren gestorben.
Marked response: 0

Exam item: Recorded Tieren gestorben for CN(C)c1nc2nc(N3CCNCC3)nc(N(C)C)c2nc1Cl [Substanz B] , please?
Marked response: 0

Exam item: Please give the measured Tieren gestorben for this molecule: CSc1nc2c(N3CC[S+]([O-])CC3)nc(N3CCNCC3)nc2nc1NCc1ccccc1 [Substanz D]
Marked response: 0

====

# Test method notes: Orienting acute toxicity after a single oral dose
# Setup conditions: mouse, in vivo, po; read-out: Orientierende aktute Toxizität
Kindly state LD50 at 336 h for each of the entries shown.

Exam item: # LD50 at 336 h lookup, item CN(C)c1nc(N2CCNCC2)nc2nc(NCc3ccccc3)c(Cl)nc12
Marked response: > 250 mg/kg

Exam item: For the compound CN(C)c1nc2nc(N3CCNCC3)nc(N(C)C)c2nc1Cl , what LD50 at 336 h is on record?
Marked response: > 250 mg/kg

Hey, just so you know, these numbers are from patent EP0134922A1.
